Biological target: T1, purified interference factor(s) from serum of Donor A
T1 construct: text names Donors 8, 19 and 30
Assay: Biacore, immobilized interference factor
Response key: 1.0 means binding vs Reference Sequence (=100%) >= 40%; 0.0 means binding vs Reference Sequence (=100%) < 40%.

Completed entries (count: 4):
binder="SEQ ID NO 68 (VHH, P14A, L108Q) VHH: EVQLVESGGGLVQAGGSLRLSCAASRSIGRLDRMGWYRHRPGEPRELVATITGGSSINYGDSVKGRFTISIDNSKNTVYLQMNSLRPEDTAVYYCNFNKYVTSRDTWGQGTQVTVSS" category=0.0
binder="SEQ ID NO 82 (VHH, P84A) VHH: EVQLVESGGGLVQPGGSLRLSCAASRSIGRLDRMGWYRHRPGEPRELVATITGGSSINYGDSVKGRFTISIDNSKNTVYLQMNSLRAEDTAVYYCNFNKYVTSRDTWGQGTLVTVSS" category=1.0
binder="SEQ ID NO 80 (VHH, T110Q, S112G, S113G) VHH: EVQLVESGGGLVQPGGSLRLSCAASRSIGRLDRMGWYRHRPGEPRELVATITGGSSINYGDSVKGRFTISIDNSKNTVYLQMNSLRPEDTAVYYCNFNKYVTSRDTWGQGTLVQVGG" category=1.0
binder="SEQ ID NO 48 (VHH) VHH: EVQLVESGGGLVQPGGSLRLSCIASGLPFSTKSMGWFRQAPGKEREFVARISPGGTSRYYGDFVKGRFAISRDNAKNTTWLQMNSLKAEDTAVYYCASGERSTYIGSNYYRTNEYDYWGTGTQVTVSS" category=0.0

Inquiry: Dear colleague, could you confirm whether SEQ ID NO 49 (VHH, C-terminal tag plus humanizing mutations) VHH: EVQLLESGGGLVQPGGSLRLSCAASGLPFSTKSMGWFRQAPGKGREFVSRISPGGTSRYYGDFVKGRFTISRDNSKNTLYLQMNSLRAEDTAVYYCASGERSTYIGSNYYRTNEYDYWGQGTLVTVSS has binding vs Reference Sequence (=100%) at or above 40%?
Reply text: 0.0

Inquiry: Dear colleague, could you confirm whether SEQ ID NO 42 (VHH, Nanobody construct; C-terminal: A) EVQLVESGGGLVQPGGSLRLSCAASGRTFSYNPMGWFRQAPGKGRELVAAISRTGGSTYYPDSVEGRFTISRDNAKRMVYLQMNSLRAEDTAVYYCAAAGVRAEDGRVRTLPSEYTFWGQGTQVTVSSAAAEVQLVESGGGLVQPGGSLRLSCAASGRTFSYNPMGWFRQAPGKGRELVAAISRTGGSTYYPDSVEGRFTISRDNAKRMVYLQMNSLRAEDTAVYYCAAAGVRAEDGRVRTLPSEYTFWGQGTQVTVSSA has binding vs Reference Sequence (=100%) at or above 40%?
Reply text: 0.0

Inquiry: Dear colleague, could you confirm whether SEQ ID NO 76 (VHH, C-terminal: GGG) VHH: EVQLVESGGGLVQPGGSLRLSCAASRSIGRLDRMGWYRHRPGEPRELVATITGGSSINYGDSVKGRFTISIDNSKNTVYLQMNSLRPEDTAVYYCNFNKYVTSRDTWGQGTLVTVSS has binding vs Reference Sequence (=100%) at or above 40%?
Reply text: 0.0
